Please go through the items and note down their pIC50.
test system: Immortalised Mouse Dermal Fibroblasts (MDFs); assay: Cellular assay: inhibition of TSI induced necroptosis, CellTitre-Glo viability; conditions: Mus musculus, Fibroblast; MDF, 3 hours TSI cocktail, Table 27; read-out: Inhibition of TSI-induced necroptosis (IC50 cell-based assay) in MDF
pIC50: −log10 of the molar value.

[
  {
    "compound": "C[C@H](Oc1cc(-c2nn(C)c3c(-c4cnn(C5CCN(CCn6cc(CCNc7cccc8c7C(=O)N(C7CCC(=O)NC7=O)C8=O)nn6)CC5)c4)cnc(N)c23)ccc1NS(=O)(=O)C(F)F)c1ccc(F)cc1 (stereo partly shown)",
    "value type": "pIC50",
    "test result": "> 6.00"
  },
  {
    "compound": "Cc1ncsc1-c1ccc(CNC(=O)[C@@H]2C[C@@H](O)CN2C(=O)[C@@H](NC(=O)COCCOc2ccc(-c3cnc(N)c4c(-c5ccc(NS(=O)(=O)C(F)F)c(O[C@@H](C)c6ccc(F)cc6)c5)nn(C)c34)cc2)C(C)(C)C)cc1",
    "value type": "pIC50",
    "test result": "5.00 to 6.00"
  },
  {
    "compound": "C[C@H](Oc1cc(-c2nn(C)c3c(-c4cnn(C5CCN(C(=O)C6CCC(c7cccc8c7C(=O)N(C7CCC(=O)NC7=O)C8=O)CC6)CC5)c4)cnc(N)c23)ccc1NS(=O)(=O)C(F)F)c1ccc(F)cc1 (stereo partly shown)",
    "value type": "pIC50",
    "test result": "> 6.00"
  }
]

Now examine the next entry.
Query :: Which pIC50 is listed for C[C@H](Oc1cc(-c2nn(C)c3c(-c4cnn(C5CCN(C(=O)CCC6CCN(c7cc8c(cc7F)C(=O)N(C7CCC(=O)NC7=O)C8=O)CC6)CC5)c4)cnc(N)c23)ccc1NS(=O)(=O)C(F)F)c1ccc(F)cc1 (stereo partly shown) ?
Result :: > 6.00

---

test system: Immortalised Mouse Dermal Fibroblasts (MDFs); assay: Cellular assay: inhibition of TSI induced necroptosis, CellTitre-Glo viability; conditions: Mus musculus, Fibroblast; MDF, 3 hours TSI cocktail, Table 27; read-out: Inhibition of TSI-induced necroptosis (IC50 cell-based assay) in MDF
value type: IC50

For every listed record, write down its IC50.
1. C[C@H](Oc1cc(-c2nn(C)c3c(-c4cnn(C5CCN(CCc6cccc7c6C(=O)N(C6CCC(=O)NC6=O)C7=O)CC5)c4)cnc(N)c23)ccc1NS(=O)(=O)C(F)F)c1ccc(F)cc1 (some centres unmarked)
2. Cn1nc(-c2ccc(NS(=O)(=O)C(F)F)c(F)c2)c2c(N)ncc(-c3cnn(C4CCN(Cc5cccc(CNc6cccc7c6C(=O)N(C6CCC(=O)NC6=O)C7=O)c5)CC4)c3)c21 (centres unmarked)
3. C[C@H](Oc1cc(-c2nn(C)c3c(-c4cnn(C5CCN(C(=O)C6CN(c7cccc8c7C(=O)N(C7CCC(=O)NC7=O)C8=O)CCO6)CC5)c4)cnc(N)c23)ccc1NS(=O)(=O)C(F)F)c1ccc(F)cc1 (some centres unmarked)

Result ::
["1000 to 10000 nM", "1000 to 10000 nM", "< 1000 nM"]

For every listed record, write down its IC50.
1. C[C@H](Oc1cc(-c2nn(C)c3c(-c4cnn(C5CCN(C(=O)[C@H]6CC[C@@H](Nc7cccc8c7C(=O)N(C7CCC(=O)NC7=O)C8=O)CC6)CC5)c4)cnc(N)c23)ccc1NS(=O)(=O)C(F)F)c1ccc(F)cc1 (some centres unmarked)
2. C[C@H](Oc1cc(-c2nn(C)c3c(-c4cnn(C5CCN(CCCN6CCN(C(=O)COc7ccc8c(c7)C(=O)N(C7CCC(=O)NC7=O)C8=O)CC6)CC5)c4)cnc(N)c23)ccc1NS(=O)(=O)C(F)F)c1ccc(F)cc1 (some centres unmarked)
3. C[C@H](Oc1cc(-c2nn(C)c3c(-c4cnn(C5CCN(C(=O)[C@H]6C[C@@H](Nc7cccc8c7C(=O)N(C7CCC(=O)NC7=O)C8=O)C6)CC5)c4)cnc(N)c23)ccc1NS(=O)(=O)C(F)F)c1ccc(F)cc1 (some centres unmarked)
4. C[C@H](Oc1cc(-c2nn(C)c3c(-c4cnn(C5CCN(CC6CCN(c7cccc8c7C(=O)N(C7CCC(=O)NC7=O)C8=O)CC6)CC5)c4)cnc(N)c23)ccc1NS(=O)(=O)C(F)F)c1ccc(F)cc1 (some centres unmarked)
5. Cn1nc(-c2ccc(NS(=O)(=O)C(F)F)c(F)c2)c2c(N)ncc(-c3cnn(C4CCN(C(=O)N5CCN(c6cccc7c6C(=O)N(C6CCC(=O)NC6=O)C7=O)CC5)CC4)c3)c21 (centres unmarked)

Result ::
1: < 1000 nM; 2: < 1000 nM; 3: < 1000 nM; 4: < 1000 nM; 5: 1000 to 10000 nM

For every listed record, write down its IC50.
1. C[C@H](Oc1cc(-c2nn(C)c3c(-c4cnn(C5CCC(C(=O)N6CCN(c7cccc8c7C(=O)N(C7CCC(=O)NC7=O)C8=O)CC6)N(C)C5)c4)cnc(N)c23)ccc1NS(=O)(=O)C(F)F)c1ccc(F)cc1 (some centres unmarked)
2. Cc1ncsc1-c1ccc(CNC(=O)[C@@H]2C[C@@H](O)CN2C(=O)[C@@H](NC(=O)CCCCCCCn2cc(-c3cnc(N)c4c(-c5ccc(NS(=O)(=O)C(F)F)c(O[C@@H](C)c6ccc(F)cc6)c5)nn(C)c34)cn2)C(C)(C)C)cc1
3. C[C@H](Oc1cc(-c2nn(C)c3c(-c4cnn(C5CCN(Cc6cccc(CNc7cccc8c7C(=O)N(C7CCC(=O)NC7=O)C8=O)c6)CC5)c4)cnc(N)c23)ccc1NS(=O)(=O)C(F)F)c1ccc(F)cc1 (some centres unmarked)

Result ::
< 1000 nM
< 1000 nM
< 1000 nM

For every listed record, write down its IC50.
1. C[C@H](Oc1cc(-c2nn(C)c3c(-c4cnn(CCCCCCCOc5cccc6c5C(=O)N(C5CCC(=O)NC5=O)C6=O)c4)cnc(N)c23)ccc1NS(=O)(=O)C(F)F)c1ccc(F)cc1 (some centres unmarked)
2. C[C@H](Oc1cc(-c2nn(C)c3c(-c4cnn(C5CCN(C(=O)[C@H]6C[C@@H]6C6CCN(c7cccc8c7C(=O)N(C7CCC(=O)NC7=O)C8=O)CC6)CC5)c4)cnc(N)c23)ccc1NS(=O)(=O)C(F)F)c1ccc(F)cc1 (stereo in doubt)

Result ::
["< 1000 nM", "< 1000 nM"]
